Attribution: BigSolDB 2.1

Run Conditions: in ethyl acetate, 323.15 K
Reported Metric: solubility (mole fraction)

Data request: Give the value of solubility (mole fraction) reported for the following: `COc1ccc(CN2CCNCC2)c(OC)c1OC.Cl.Cl`
Data returned: 0.00286

----------
Run Conditions: in ethyl acetate, 278.15 K
Reported Metric: solubility (mole fraction)

Data request: Give the value of solubility (mole fraction) reported for the following: `COc1ccc(CN2CCNCC2)c(OC)c1OC.Cl.Cl`
Data returned: 0.00201

----------
Run Conditions: in ethanol, 293.15 K
Reported Metric: solubility (mole fraction)
Please reply with the value in numeric form only.

Data request: Give the value of solubility (mole fraction) reported for the following: `COc1ccc(CN2CCNCC2)c(OC)c1OC.Cl.Cl`
Data returned: 0.000805

----------
Run Conditions: in toluene, 318.15 K
Reported Metric: solubility (mole fraction)
Please reply with the value in numeric form only.

Data request: Give the value of solubility (mole fraction) reported for the following: `COc1ccc(CN2CCNCC2)c(OC)c1OC.Cl.Cl`
Data returned: 2.43e-06

----------
Run Conditions: in isopropanol, 318.15 K
Reported Metric: solubility (mole fraction)
Please reply with the value in numeric form only.

Data request: Give the value of solubility (mole fraction) reported for the following: `COc1ccc(CN2CCNCC2)c(OC)c1OC.Cl.Cl`
Data returned: 0.000287

----------
Run Conditions: in methanol, 298.15 K
Reported Metric: solubility (mole fraction)
Please reply with the value in numeric form only.

Data request: Give the value of solubility (mole fraction) reported for the following: `COc1ccc(CN2CCNCC2)c(OC)c1OC.Cl.Cl`
Data returned: 0.00603

----------
Run Conditions: in methanol, 318.15 K
Reported Metric: solubility (mole fraction)
Please reply with the value in numeric form only.

Data request: Give the value of solubility (mole fraction) reported for the following: `COc1ccc(CN2CCNCC2)c(OC)c1OC.Cl.Cl`
Data returned: 0.00993

----------
Run Conditions: in n-propanol, 323.15 K
Reported Metric: solubility (mole fraction)
Please reply with the value in numeric form only.

Data request: Give the value of solubility (mole fraction) reported for the following: `COc1ccc(CN2CCNCC2)c(OC)c1OC.Cl.Cl`
Data returned: 0.000581

----------
Run Conditions: in ethyl acetate, 318.15 K
Reported Metric: solubility (mole fraction)
Please reply with the value in numeric form only.

Data request: Give the value of solubility (mole fraction) reported for the following: `COc1ccc(CN2CCNCC2)c(OC)c1OC.Cl.Cl`
Data returned: 0.00275

----------
Run Conditions: in isopropanol, 298.15 K
Reported Metric: solubility (mole fraction)

Data request: Give the value of solubility (mole fraction) reported for the following: `COc1ccc(CN2CCNCC2)c(OC)c1OC.Cl.Cl`
Data returned: 0.000157

----------
Run Conditions: in acetonitrile, 313.15 K
Reported Metric: solubility (mole fraction)
Please reply with the value in numeric form only.

Data request: Give the value of solubility (mole fraction) reported for the following: `COc1ccc(CN2CCNCC2)c(OC)c1OC.Cl.Cl`
Data returned: 2.19e-05

----------
Run Conditions: in ethanol, 318.15 K
Reported Metric: solubility (mole fraction)
Please reply with the value in numeric form only.

Data request: Give the value of solubility (mole fraction) reported for the following: `COc1ccc(CN2CCNCC2)c(OC)c1OC.Cl.Cl`
Data returned: 0.00132

----------
Run Conditions: in n-propanol, 293.15 K
Reported Metric: solubility (mole fraction)
Please reply with the value in numeric form only.

Data request: Give the value of solubility (mole fraction) reported for the following: `COc1ccc(CN2CCNCC2)c(OC)c1OC.Cl.Cl`
Data returned: 0.000281

----------
Run Conditions: in DMF, 308.15 K
Reported Metric: solubility (mole fraction)
Please reply with the value in numeric form only.

Data request: Give the value of solubility (mole fraction) reported for the following: `COc1ccc(CN2CCNCC2)c(OC)c1OC.Cl.Cl`
Data returned: 0.000803

----------
Run Conditions: in 1,4-dioxane, 293.15 K
Reported Metric: solubility (mole fraction)

Data request: Give the value of solubility (mole fraction) reported for the following: `COc1ccc(CN2CCNCC2)c(OC)c1OC.Cl.Cl`
Data returned: 6.07e-05

----------
Run Conditions: in 2-butanone, 288.15 K
Reported Metric: solubility (mole fraction)
Please reply with the value in numeric form only.

Data request: Give the value of solubility (mole fraction) reported for the following: `COc1ccc(CN2CCNCC2)c(OC)c1OC.Cl.Cl`
Data returned: 7.1e-06

----------
Run Conditions: in 1,4-dioxane, 308.15 K
Reported Metric: solubility (mole fraction)

Data request: Give the value of solubility (mole fraction) reported for the following: `COc1ccc(CN2CCNCC2)c(OC)c1OC.Cl.Cl`
Data returned: 9.48e-05

----------
Run Conditions: in acetone, 303.15 K
Reported Metric: solubility (mole fraction)
Please reply with the value in numeric form only.

Data request: Give the value of solubility (mole fraction) reported for the following: `COc1ccc(CN2CCNCC2)c(OC)c1OC.Cl.Cl`
Data returned: 9.62e-06

----------
Run Conditions: in n-propanol, 303.15 K
Reported Metric: solubility (mole fraction)
Please reply with the value in numeric form only.

Data request: Give the value of solubility (mole fraction) reported for the following: `COc1ccc(CN2CCNCC2)c(OC)c1OC.Cl.Cl`
Data returned: 0.000366

----------
Run Conditions: in isopropanol, 313.15 K
Reported Metric: solubility (mole fraction)
Please reply with the value in numeric form only.

Data request: Give the value of solubility (mole fraction) reported for the following: `COc1ccc(CN2CCNCC2)c(OC)c1OC.Cl.Cl`
Data returned: 0.000247

----------
Run Conditions: in isopropanol, 288.15 K
Reported Metric: solubility (mole fraction)
Please reply with the value in numeric form only.

Data request: Give the value of solubility (mole fraction) reported for the following: `COc1ccc(CN2CCNCC2)c(OC)c1OC.Cl.Cl`
Data returned: 0.00011

----------
Run Conditions: in acetonitrile, 288.15 K
Reported Metric: solubility (mole fraction)
Please reply with the value in numeric form only.

Data request: Give the value of solubility (mole fraction) reported for the following: `COc1ccc(CN2CCNCC2)c(OC)c1OC.Cl.Cl`
Data returned: 1.49e-05

----------
Run Conditions: in 1,4-dioxane, 313.15 K
Reported Metric: solubility (mole fraction)
Please reply with the value in numeric form only.

Data request: Give the value of solubility (mole fraction) reported for the following: `COc1ccc(CN2CCNCC2)c(OC)c1OC.Cl.Cl`
Data returned: 0.000109

----------
Run Conditions: in methanol, 283.15 K
Reported Metric: solubility (mole fraction)
Please reply with the value in numeric form only.

Data request: Give the value of solubility (mole fraction) reported for the following: `COc1ccc(CN2CCNCC2)c(OC)c1OC.Cl.Cl`
Data returned: 0.00402

----------
Run Conditions: in 1,4-dioxane, 318.15 K
Reported Metric: solubility (mole fraction)
Please reply with the value in numeric form only.

Data request: Give the value of solubility (mole fraction) reported for the following: `COc1ccc(CN2CCNCC2)c(OC)c1OC.Cl.Cl`
Data returned: 0.000124
